Form: system (Epidermal growth factor receptor (Homo sapiens)), quantity (IC50), values below.
Number in nM, nothing else.

Fill blank: measured IC50 of the compound C=CC(=O)Nc1cccc(-n2c(=O)cc(C)c3cnc(Nc4ccc(N5CCN(C)CC5)cc4OC)nc32)c1 is ____. 240

Also C=CC(=O)Nc1cccc(-n2c(=O)cc(CC)c3cnc(Nc4ccc(N5CCN(C)CC5)cc4OC)nc32)c1 , if possible. 114

Also C=CC(=O)Nc1cccc(-n2c(=O)cc(C3CC3)c3cnc(Nc4ccc(N5CCN(C)CC5)cc4OC)nc32)c1 , if possible. 120

Also C=CC(=O)Nc1cccc(-n2c(=O)c(-c3ccccc3)c(C)c3cnc(Nc4ccc(N5CCN(C)CC5)cc4OC)nc32)c1 , if possible. 20

Also C=CC(=O)Nc1cccc(-n2c(=O)cc(-c3ccccc3)c3cnc(Nc4ccc(N5CCN(C)CC5)cc4OC)nc32)c1 , if possible. 97

Each recorded value in this set is attributed to ChEMBL document CHEMBL3751728.
